tested on: K562; assay: cell viability relative to vehicle control; higher = less cytotoxic; details: 10 µM; SRSF2 genotype: SRSF2 wt/wt;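 also: after 48 h exposure read by CellTiter-Glo luminescence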
Counter-ions that a name gives are not always drawn.
property_name: cell viability (%)
Output spec: scalar in %, unitless text.

molecule=COc1cc(N2CCC(N(C)C)CC2)ccc1Nc1ncc(Cl)c(Nc2ccccc2P(C)(C)=O)n1 recorded_result=34.2
molecule="COc1cc(C=O)cc(OC)c1O [Syringaldehyde]" recorded_result=96
molecule="O=S(=O)(c1cccc2cnccc12)N1CCCNCC1 [Fasudil HCl (HA-1077)]" recorded_result=94
molecule=CCOC(=O)NCCCC(=O)NCCc1ccccc1 recorded_result=98.8

Give cell viability only, for COc1cccc2c1c(O)c(C(=O)N(C)c1ccc(C(F)(F)F)cc1)c(=O)n2C [Tasquinimod] , using K562 data.
99.1
